- System: Pr. vulgalis, 08601
- ASSAY INFO: Antimicrobial activity MIC, standard method of Japanese Society of Chemotherapy
- Type: cell-based
- ASSAY CONDITIONS: read-out: MIC
MEASURED ATTRIBUTE: MIC (mg/L)
Give bare numbers, in mg/L.

INSERT INTO measurements (compound, unit_annotation, value) VALUES
  ('COc1c(N2C[C@H](CF)[C@H](N)C2)c(F)cc2c(=O)c(C(=O)O)cn(C3CC3)c12 [Comparative Compound, reference compound]', 'mg/L', 0.006),
  ('C[C@H]1COc2c(N3CCN(C)CC3)c(F)cc3c(=O)c(C(=O)O)cn1c23 [LVFX, levofloxacin, reference compound]', 'mg/L', 0.012);

Entry C[C@H]1COc2c(N3C[C@H](CF)[C@H](N)C3)c(F)cc3c(=O)c(C(=O)O)cn1c23 [Example 1] : reported MIC = ?
0.012

###

- Tested on: S. aureus, 209P
- ASSAY INFO: Antimicrobial activity MIC, standard method of Japanese Society of Chemotherapy
- Assay type: cell-based
- ASSAY CONDITIONS: Staphylococcus aureus, read-out: MIC
Please provide measured MIC for the entries that follow.
Answers are plain numbers, in mg/L.

INSERT INTO assay_data (molecule, value) VALUES
  ('O=C(O)c1cn(C2CC2)c2cc(N3CCNCC3)c(F)cc2c1=O [CPFX, ciprofloxacin, reference compound]', 0.1);

Provide MIC values for the following items, in order.
1. C[C@H]1COc2c(N3C[C@H](CF)[C@H](N)C3)c(F)cc3c(=O)c(C(=O)O)cn1c23
2. C[C@H]1COc2c(N3CC(N)C(C(F)F)C3)c(F)cc3c(=O)c(C(=O)O)cn1c23 (single isomer, unassigned)
3. C[C@H]1COc2c(N3CCN(C)CC3)c(F)cc3c(=O)c(C(=O)O)cn1c23 [LVFX, levofloxacin, reference compound]
4. COc1c(N2C[C@H](CF)[C@H](N)C2)c(F)cc2c(=O)c(C(=O)O)cn(C3CC3)c12 [Comparative Compound, reference compound]

1. 0.025
2. 0.025
3. 0.2
4. 0.012

###

Please provide measured MIC for the entries that follow.
- System: Str. pneumoniae, J24
- ASSAY INFO: Antimicrobial activity MIC, standard method of Japanese Society of Chemotherapy
- Type: cell-based
- ASSAY CONDITIONS: Streptococcus pneumoniae, J24, Str. pneumoniae, read-out: MIC
One number for each entry, in µg/mL.

Here's what some known entries look like.
INSERT INTO assay_data (compound, value) VALUES
  ('C[C@H]1COc2c(N3C[C@H](CF)[C@H](N)C3)c(F)cc3c(=O)c(C(=O)O)cn1c23 [Example 1]', 0.1),
  ('COc1c(N2C[C@H](CF)[C@H](N)C2)c(F)cc2c(=O)c(C(=O)O)cn(C3CC3)c12 [Comparative Compound, reference compound]', 0.025),
  ('C[C@H]1COc2c(N3CC(N)C(C(F)F)C3)c(F)cc3c(=O)c(C(=O)O)cn1c23 (single isomer, unassigned) [Example 2]', 0.2),
  ('C[C@H]1COc2c(N3CCN(C)CC3)c(F)cc3c(=O)c(C(=O)O)cn1c23 [LVFX, levofloxacin, reference compound]', 0.78);

// next item, MIC requested
Entry O=C(O)c1cn(C2CC2)c2cc(N3CCNCC3)c(F)cc2c1=O [CPFX, ciprofloxacin, reference compound] : reported MIC = ?
0.1

###

- Tested on: K. pneumoniae, Type I
- ASSAY INFO: Antimicrobial activity MIC, standard method of Japanese Society of Chemotherapy
- Assay type: cell-based
- ASSAY CONDITIONS: Klebsiella pneumoniae, read-out: MIC
Please provide measured MIC for the entries that follow.
Give bare numbers, in µg/mL.

Here's what some known entries look like.
INSERT INTO assay_data (compound, measured_attribute, value) VALUES
  ('C[C@H]1COc2c(N3CCN(C)CC3)c(F)cc3c(=O)c(C(=O)O)cn1c23 [LVFX, levofloxacin, reference compound]', 'MIC', 0.1),
  ('C[C@H]1COc2c(N3C[C@H](CF)[C@H](N)C3)c(F)cc3c(=O)c(C(=O)O)cn1c23', 'MIC', 0.05),
  ('C[C@H]1COc2c(N3CC(N)C(C(F)F)C3)c(F)cc3c(=O)c(C(=O)O)cn1c23 (single isomer, unassigned)', 'MIC', 0.05),
  ('O=C(O)c1cn(C2CC2)c2cc(N3CCNCC3)c(F)cc2c1=O [CPFX, ciprofloxacin, reference compound]', 'MIC', 0.025);

// next item, MIC requested
Entry COc1c(N2C[C@H](CF)[C@H](N)C2)c(F)cc2c(=O)c(C(=O)O)cn(C3CC3)c12 [Comparative Compound, reference compound] : reported MIC = ?
0.025

###

- Test system: Ps. aeruginosa, 32104
- ASSAY INFO: Antimicrobial activity MIC, standard method of Japanese Society of Chemotherapy
- Assay type: cell-based
- ASSAY CONDITIONS: Pseudomonas aeruginosa, 32104, Ps. aeruginosa, read-out: MIC
MEASURED ATTRIBUTE: MIC (µg/mL)
Answers are plain numbers, in µg/mL.

INSERT INTO measurements (compound, measured_attribute, value) VALUES
  ('C[C@H]1COc2c(N3C[C@H](CF)[C@H](N)C3)c(F)cc3c(=O)c(C(=O)O)cn1c23 [Example 1]', 'MIC', 0.1),
  ('C[C@H]1COc2c(N3CCN(C)CC3)c(F)cc3c(=O)c(C(=O)O)cn1c23 [LVFX, levofloxacin, reference compound]', 'MIC', 0.2),
  ('C[C@H]1COc2c(N3CC(N)C(C(F)F)C3)c(F)cc3c(=O)c(C(=O)O)cn1c23 (single isomer, unassigned) [Example 2]', 'MIC', 0.2);

Provide MIC values for the following items, in order.
1. O=C(O)c1cn(C2CC2)c2cc(N3CCNCC3)c(F)cc2c1=O [CPFX, ciprofloxacin, reference compound]
2. COc1c(N2C[C@H](CF)[C@H](N)C2)c(F)cc2c(=O)c(C(=O)O)cn(C3CC3)c12 [Comparative Compound, reference compound]

[0.005, 0.2]

###

- System: E. coli, NIHJ
- ASSAY INFO: Antimicrobial activity MIC, standard method of Japanese Society of Chemotherapy
- Type: cell-based
- ASSAY CONDITIONS: Escherichia coli, read-out: MIC
Please provide measured MIC for the entries that follow.

INSERT INTO assay_data (compound, value) VALUES
  ('COc1c(N2C[C@H](CF)[C@H](N)C2)c(F)cc2c(=O)c(C(=O)O)cn(C3CC3)c12 [Comparative Compound, reference compound]', '≤ 3 ng/mL'),
  ('C[C@H]1COc2c(N3C[C@H](CF)[C@H](N)C3)c(F)cc3c(=O)c(C(=O)O)cn1c23 [Example 1]', '6 ng/mL'),
  ('C[C@H]1COc2c(N3CCN(C)CC3)c(F)cc3c(=O)c(C(=O)O)cn1c23 [LVFX, levofloxacin, reference compound]', '120 ng/mL');

Entry O=C(O)c1cn(C2CC2)c2cc(N3CCNCC3)c(F)cc2c1=O [CPFX, ciprofloxacin, reference compound] : reported MIC = ?
≤ 3 ng/mL

All figures here come from patent US20070191356A1.
